assay: in vitro; conditions: human, hela cells, % viability
ATTRIBUTE_MEASURED: viability at 28.5 h, 10 µM (%)
Respond numerically; units are % and should not be typed.

The cases that follow already have their viability at 28.5 h, 10 µM on record.
1) O=C1NC2(CCCCC2)C(=O)N1CCS(=O)(=O)Oc1ccc(Br)cc1: 93.5
2) Cn1c(=O)c2c(O)cc(=O)oc2c2ccccc21: 93.3
3) COc1ccccc1NC(=O)COc1ccc(C)cc1[N+](=O)[O-]: 81.6
4) CN(C)c1ccc(-c2nccnc2NS(=O)(=O)Cc2cccc(Cl)c2)cc1: 102
5) CCOC(=O)N1CCN(C2CCCN(Cc3cnc(N(C)C)s3)C2)CC1 (stereo not drawn): 93.7

Here is the next item to consider.
stdin: Please give the measured viability at 28.5 h, 10 µM for this molecule: Clc1ccccc1-c1nccnc1NCc1ccncc1
stdout: 89.2

All values here come from paper PMC12040169.
